Target: Potassium Channel hERG, [3H]Dofetilide (Homo sapiens)
Construct: gene KCNH2; dofetilide site
Sequence (Q12809 whole entry): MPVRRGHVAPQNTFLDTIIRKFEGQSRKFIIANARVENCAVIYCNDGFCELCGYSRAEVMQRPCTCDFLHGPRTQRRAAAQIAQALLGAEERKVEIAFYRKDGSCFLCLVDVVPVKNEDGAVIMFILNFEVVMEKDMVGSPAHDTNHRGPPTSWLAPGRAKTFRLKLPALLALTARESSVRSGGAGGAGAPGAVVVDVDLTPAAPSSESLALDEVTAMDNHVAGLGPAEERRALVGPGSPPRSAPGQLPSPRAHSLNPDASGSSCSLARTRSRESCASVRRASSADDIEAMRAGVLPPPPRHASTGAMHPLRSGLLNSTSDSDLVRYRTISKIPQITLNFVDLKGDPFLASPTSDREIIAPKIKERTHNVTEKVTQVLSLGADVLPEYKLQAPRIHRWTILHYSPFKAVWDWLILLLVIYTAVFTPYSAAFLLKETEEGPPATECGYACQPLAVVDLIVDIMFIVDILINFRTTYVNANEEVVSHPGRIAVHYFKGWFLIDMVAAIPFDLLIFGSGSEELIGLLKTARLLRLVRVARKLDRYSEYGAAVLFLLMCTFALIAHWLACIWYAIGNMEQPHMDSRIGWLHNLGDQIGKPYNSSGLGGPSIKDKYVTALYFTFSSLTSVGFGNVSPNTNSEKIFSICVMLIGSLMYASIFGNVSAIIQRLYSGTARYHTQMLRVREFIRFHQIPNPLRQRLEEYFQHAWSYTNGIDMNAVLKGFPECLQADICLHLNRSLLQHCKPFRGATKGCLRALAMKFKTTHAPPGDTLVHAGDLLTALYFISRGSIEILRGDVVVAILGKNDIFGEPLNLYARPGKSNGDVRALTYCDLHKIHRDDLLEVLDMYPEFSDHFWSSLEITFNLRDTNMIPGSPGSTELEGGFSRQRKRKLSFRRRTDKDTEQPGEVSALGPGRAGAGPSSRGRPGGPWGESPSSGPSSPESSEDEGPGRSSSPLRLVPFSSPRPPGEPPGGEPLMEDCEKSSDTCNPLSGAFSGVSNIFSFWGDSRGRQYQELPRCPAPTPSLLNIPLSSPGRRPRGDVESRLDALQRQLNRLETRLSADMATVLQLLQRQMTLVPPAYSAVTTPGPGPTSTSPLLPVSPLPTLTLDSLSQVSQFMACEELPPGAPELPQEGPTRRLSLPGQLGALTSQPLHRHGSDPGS
Assay: in vitro
Parameters: Eurofins SafetyScreen44 panel of binding and enzyme assays, mean per cent inhibition of duplicate
quantity-kind: inhibition at 10 µM (%)
Output spec: scalar in %, unitless text.

Prompt: # get_value(readout='inhibition at 10 µM', item= Nc1nc(N)c(CC(=O)Nc2cnc(C(=O)N[C@@H](CCC(=O)O)C(=O)O)c(F)c2)c(=O)[nH]1 )
Completion: 5

###

Molecular target: MTHFD1-(DC) (Homo sapiens, UniProt P11586)
Construct: dehydrogenase/cyclohydrolase (DC) domain
Sequence (P11586 2-306 limits assumed): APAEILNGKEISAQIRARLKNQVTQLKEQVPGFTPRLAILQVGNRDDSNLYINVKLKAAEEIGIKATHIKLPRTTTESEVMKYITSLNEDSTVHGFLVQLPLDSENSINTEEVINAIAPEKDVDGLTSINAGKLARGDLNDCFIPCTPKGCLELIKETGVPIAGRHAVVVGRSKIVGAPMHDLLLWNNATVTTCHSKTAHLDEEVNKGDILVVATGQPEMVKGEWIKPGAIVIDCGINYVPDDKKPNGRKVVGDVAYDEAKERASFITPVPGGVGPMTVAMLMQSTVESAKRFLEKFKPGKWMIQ
Experiment: biochemical activity assay
quantity-kind: pIC50
Value format note: pIC50 is -log10 of concentration (mol/L); just state the number.

Prompt: Could you tell me which pIC50 is on file for Nc1nc2c(c(=O)[nH]1)N1C(=O)N(c3ccc(C(=O)N[C@@H](CCC(=O)O)C(=O)O)cc3)CC1CN2 (stereo partly shown) ?
Completion: 6.27

###

Target: UniProtKB Q9H903
Sequence (Q9H903 whole entry): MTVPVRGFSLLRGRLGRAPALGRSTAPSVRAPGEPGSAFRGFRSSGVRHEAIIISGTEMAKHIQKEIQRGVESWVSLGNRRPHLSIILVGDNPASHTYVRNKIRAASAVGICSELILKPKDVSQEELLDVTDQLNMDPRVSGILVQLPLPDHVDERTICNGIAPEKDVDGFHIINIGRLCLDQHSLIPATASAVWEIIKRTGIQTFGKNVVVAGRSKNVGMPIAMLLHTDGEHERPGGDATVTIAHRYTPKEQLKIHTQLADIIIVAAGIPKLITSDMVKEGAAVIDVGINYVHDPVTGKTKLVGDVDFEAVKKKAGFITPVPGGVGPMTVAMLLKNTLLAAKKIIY
Assay: biochemical activity assay
quantity-kind: pIC50
The value called pIC50 is obtained by taking minus log10 of the concentration in mol/L.

Prompt: Sample Nc1nc(N)c(NC(=O)Nc2ccc(C(=O)N[C@@H](CCC(=O)O)C(=O)O)cc2)c(=O)[nH]1 [TH7299] — what was its pIC50?
Completion: 6.90

Each recorded value in this set is attributed to paper PMC8885417.
